Please respond with reported AC50 for every item in the list.
Tested on: E. coli WT ribosome GFP fluorescence, mixed culture, 24 h
Assay: wild-type E. coli growth inhibition versus h38 humanized strain – h38 mutant RFP, wild-type GFP, cherry-pick, dose response (AID 977622)
Conditions: E. coli mixed culture, 24 h; measured here: total growth OD600
Inconclusive results are not listed.

I'm curious: which AC50 was measured for "CC(=O)Nc1cccc(OCCCOc2cccc([N+](=O)[O-])c2)c1" tested on E. coli WT ribosome GFP fluorescence, mixed culture, 24 h?
> 100 µM

Form: Entry = "O=S1(=O)N[C@H](Cc2ccccc2)COc2cc(N3CCSCC3)ccc21" | System = E. coli WT ribosome GFP fluorescence, mixed culture, 24 h | AC50 = ____
> 100 µM

Given the entry "O=[N+]([O-])c1ccc(N2CCOCC2)c2c1no[n+]2[O-]" , what AC50 was observed with E. coli WT ribosome GFP fluorescence, mixed culture, 24 h?
> 100 µM

So what AC50 did "O=C(Cc1cccc(NC(=O)C2CCN(C(=O)C3CCCCC3)CC2)c1)Nc1cccc(C(=O)N2CCCC2)c1" get with E. coli WT ribosome GFP fluorescence, mixed culture, 24 h?
> 100 µM

# get_value(readout= AC50, system= E. coli WT ribosome GFP fluorescence, mixed culture, 24 h) for "Cc1cc2nc(SCC(=O)O)nc(C)c2cc1C"
> 100 µM

Query AC50 on E. coli WT ribosome GFP fluorescence, mixed culture, 24 h for CC(C)N1CC2(CC(c3ccccc3C(F)(F)F)=NO2)CN1C(=O)c1ccco1 (stereo not given)
> 100 µM

# query: AC50 | item Cc1ccc(N(CC(O)Cn2nc(C)cc2C)S(=O)(=O)c2ccc3ccccc3c2)cc1 (stereo not given) | system: E. coli WT ribosome GFP fluorescence, mixed culture, 24 h
43.1 µM

Given the entry CN(c1ccccc1)S(=O)(=O)c1cccc(NC(=O)CCN2C(=O)C3CCCCC3C2=O)c1 (stereo not given) , what AC50 was observed with E. coli WT ribosome GFP fluorescence, mixed culture, 24 h?
> 100 µM

Under E. coli WT ribosome GFP fluorescence, mixed culture, 24 h: AC50 value of "CCCC[n+]1ccn(-c2nc3ccccc3nc2[N-]S(=O)(=O)c2cccs2)c1" ?
> 100 µM

Form entry - test system: E. coli WT ribosome GFP fluorescence, mixed culture, 24 h; read-out: AC50; molecule: COc1cccc(C(=O)NC2CC3CCCC(C2)N3S(=O)(=O)c2ccccc2)c1 (stereo not given)
41.4 µM

Each recorded value in this set is attributed to PubChem BioAssay AID977622.
